system: HOP-62 NSCLC; test: NCI tumour cell line growth inhibition, 48 h
reported_endpoint: TGI

- COc1ccccc1/C=C1\C(=O)N(C(=O)Cc2ccccc2)N=C1C: > 100 µM
- CC(C)(C)OC(=O)NCCCCCCCCCn1c2c(c3ccccc3c1=O)C(=O)c1ccccc1-2: 71.6 µM
- CS(=O)(=O)OCCN(CCOS(C)(=O)=O)c1ccc(C=Nc2ccc(-c3csc(Cc4ccccc4)n3)cc2)c(Cl)c1: > 55.5 µM
- COCN1COCN(C)C1=O: > 100 µM
- CCOC(=O)c1ccc(N=Cc2ccc(N(CCC#N)S(=O)(=O)c3ccccc3)cc2C)cc1: > 100 µM
- Cc1cccc2c(=O)c3cccc([C@H](C)C(=O)O)c3oc12: > 100 µM
- Cc1cccc(NC(=O)c2c(N)[n+]([O-])c3ccccc3[n+]2[O-])c1: 31.3 µM
- O=C(c1ccccc1)c1nc2c(Cl)ccc(Cl)c2cc1C(Br)Br: 3.11 µM
- O=S1(=O)OCCOS(=O)(=O)C1(F)Cc1ccccc1: > 100 µM
- O=C(N/N=C\c1ccc(Cl)cc1)Nc1ccc2ccccc2c1: 51.3 µM
- CN[C@@H](C)C(=O)N[C@H](C(=O)N1CCC[C@H]1c1nc(C(=O)c2ccc(F)cc2)cs1)C1CCCCC1: > 65 µM
- Nc1[nH]nc(Nc2ccccc2)c1-c1nc2ccccc2s1: 5.87 µM
- C=CCCC(O)c1cc(C)c(O)c(C)c1 (stereo not given): > 100 µM
- O=C1CCCC2=C1CC1=C(CCCC1=O)N2c1ccc(Cl)cc1: > 100 µM
- CC1=NNC(=O)C1C1(C(=O)O)CC(c2c[nH]c3ccccc23)=NC(=S)N1 (stereo not given): > 100 µM

----------
tested on: T-47D breast; assay: NCI tumour cell line growth inhibition, 48 h
GI50 values by entry
reported_endpoint: GI50

• CCCC(=O)Oc1ccc(/C(=C(\C)c2ccc(Cl)cc2)c2ccc(OCCN(CC)CC)cc2)cc1 = 1.39 µM
• O=C(CSSCC(=O)c1ccc(Cl)cc1)c1ccc(Cl)cc1 = 8.66 µM
• O=C(O)CCCN1C(=O)/C(=C/C(Cl)=C/c2ccccc2)SC1=S = 1.89 µM
• CN[C@@H](C)C(=O)N[C@H](C(=O)N1CCC[C@H]1c1nc(C(=O)c2ccc(F)cc2)cs1)C1CCCCC1 = 20.4 µM
• COc1ccc(C2=Nn3c(nnc3-c3ccc(F)c(Cl)c3)SC2)cc1 = > 100 µM

----------
test system: SNB-19 CNS; assay: NCI tumour cell line growth inhibition, 48 h
TGI values by entry
reported_endpoint: TGI

* CCCCn1c(=O)[nH]c2c(N)ncnc21 | > 100 µM
* O=C1NC(c2ccccc2)(c2ccccc2)C(=O)N1CCCCCCN1C(=O)NC(c2ccccc2)(c2ccccc2)C1=O | 72.1 µM
* CCC/C=C/C=C/C(=O)OC1/C(=C/C(=O)OC)CC2CC(C(C)O)OC(=O)CC(O)CC3CC(OC(C)=O)C(C)(C)C(O)(CC4C/C(=C/C(=O)OC)CC(/C=C/C(C)(C)C1(O)O2)O4)O3 (centres undefined) | > 12.5 µM
* COP(=O)(OC)C(N)Cc1c[nH]c2ccccc12 (centres undefined) | > 100 µM
* COc1cc(C[C@@]2(C)[C@@H]3CCC[C@H](CO)[C@@]3(C)CC[C@@H]2C)c(Cl)c(OC)c1 | 33.8 µM
* O=C1CCCC2=C1CC1=C(CCCC1=O)N2c1ccc(Cl)cc1 | > 100 µM
* COc1ccc(C2=C(c3ccc(OC)cc3)C(=O)OC2)cc1 | > 100 µM
* COc1ccc(-c2cc(=O)c3c(O)c(O)c(OC)cc3o2)cc1O | > 100 µM
* CC1=CC(=O)NP(=O)(Oc2ccc(Cl)cc2)N1 (centres undefined) | > 100 µM
* COc1ccc(C2=Nn3c(nnc3-c3ccc(F)c(Cl)c3)SC2)cc1 | > 100 µM
* NCC(=O)Nc1ccc(Cl)cc1C(=O)c1ccc[nH]1 | > 100 µM
* N#CC1=C(N)NC(=O)C(C#N)C12Nc1ccccc1S2 (centres undefined) | > 100 µM
* CCOC(CBr)OC1C(=O)OCC1(C)C (centres undefined) | > 100 µM
* CN(C)S(=O)(=O)c1cccc(C(=O)Nc2nc(-c3ccc(F)c(F)c3)cs2)c1 | > 100 µM

----------
tested on: RPMI-8226 leukemia; assay: NCI tumour cell line growth inhibition, 48 h
reported_endpoint: TGI

- COc1ccc2nc3cc(Cl)ccc3c(Nc3ccccc3-c3ccccc3Nc3c4ccc(Cl)cc4nc4ccc(OC)cc34)c2c1: > 47.7 µM
- CN(C)N1C(=O)C(=O)N(c2cccc3ccccc23)C1=O: > 10 µM
- Nc1nnc(N)n1N: > 100 µM

----------
test system: UACC-62 melanoma; test: NCI tumour cell line growth inhibition, 48 h
TGI values by entry
reported_endpoint: TGI

• Cc1ccc([N+](=O)[O-])cc1S(=O)(=O)Nc1ccc(C2=NN(S(=O)(=O)c3cc([N+](=O)[O-])ccc3C)C(c3cccs3)C2)cc1 (stereo not drawn) = 47.5 µM
• O=C(c1ccc(Cl)cc1Cl)N1CCN(C(=O)c2ccc(Cl)cc2Cl)C1=S = 31.6 µM
• CC(=O)OC1(Sc2ccccc2)CC2[C@H]3COC(C)(C)O[C@H]3CC[C@@]2(C)CC1=O (stereo partly drawn) = > 100 µM
• COc1ccc(-c2cc(=O)c3c(O)c(O)c(OC)cc3o2)cc1O = > 100 µM
• COc1ccc2nc3cc(Cl)ccc3c(Nc3ccccc3-c3ccccc3Nc3c4ccc(Cl)cc4nc4ccc(OC)cc34)c2c1 = > 66.3 µM
• O=C1/C(=C/c2ccc(F)cc2)COc2ccc(O)c(O)c21 = 6.98 µM
• C(=N\NC1=NCCCCN1)/c1ccc2ccccc2c1 = 79.8 µM
• COc1ccc(-n2cc(-c3cc(OC)c(OC)c(OC)c3)nc2SCc2cccc(C#N)c2)cc1OC = > 100 µM
• CC(C)(C)c1cc(C2c3cc4c(cc3OC(O)(CO)C2C(=O)O)OCO4)cc(C(C)(C)C)c1O (stereo not drawn) (tested in a mixture with another compound) = 18.8 µM
• CC1(Cl)C(=O)NC(=O)N([C@H]2C[C@H](O)[C@@H](CO)O2)C1N=[N+]=[N-] (stereo partly drawn) = > 100 µM
• N=c1oc2cc(O)ccc2cc1C(=O)Nc1ccccn1 = > 100 µM
• CN(C)S(=O)(=O)c1cccc(C(=O)Nc2nc(-c3ccc(F)c(F)c3)cs2)c1 = > 100 µM
• O=CNC(Cc1cnc[nH]1)C(=O)O (stereo not drawn) = > 100 µM
• CCCCn1c(=O)[nH]c2c(N)ncnc21 = > 100 µM
• Cc1ccc(C(=O)Nc2ccc(S(=O)(=O)O)c3cc(S(=O)(=O)O)cc(S(=O)(=O)O)c23)cc1NC(=O)c1cccc(NC(=O)Nc2cccc(C(=O)Nc3cc(C(=O)Nc4ccc(S(=O)(=O)O)c5cc(S(=O)(=O)O)cc(S(=O)(=O)O)c45)ccc3C)c2)c1 = > 100 µM
• Cc1[nH]n(-c2nc(-c3ccccc3)cc(=O)[nH]2)c(=O)c1CCO = > 100 µM
• COc1ccc(C2=C(OC(C)=O)c3cccn3-c3ccc(Cl)cc3S2)cc1 = > 10 µM
• Nc1nnc(N)n1N = > 100 µM
• CCC(C)C(Nc1c2ccccc2nc2c(C(=O)NCCN(C)C)cccc12)C(=O)O (stereo not drawn) = 47.4 µM
• O=C(CSSCC(=O)c1ccc(Cl)cc1)c1ccc(Cl)cc1 = 14.5 µM
• O=S1(=O)OCCOS(=O)(=O)C1(F)Cc1ccccc1 = > 100 µM
• Cn1cc(-c2ccc3c4ccccc4n(C)c3c2)c2ccccc21 = > 100 µM
• COC(=O)CNC(=O)C(=O)c1c(O)c(O)c(C(C)C)c2cc(C)c(-c3c(C)cc4c(C(C)C)c(O)c(O)c(C(=O)C(=O)NCC(=O)OC)c4c3O)c(O)c12 = 9.48 µM
• COc1ccc(CCN2CCCn3c2nc2ccccc2c3=O)cc1 = > 100 µM
• CC(=O)c1cc2c(Br)cccc2oc1=O = > 100 µM
• Cc1cc(NC(=O)NCCOc2ccc(N3C(N)=NC(N)=NC3(C)C)cc2Cl)ccc1S(=O)(=O)F = 35.2 µM
• CN(c1cccc(C(=O)O)c1)c1cc(O/N=[N+](\[O-])N(C)C)c([N+](=O)[O-])cc1[N+](=O)[O-] = > 100 µM
• COC1CCCc2c(OC(C)=O)ccc(OC(C)=O)c21 (stereo not drawn) = > 100 µM
• CN(C)CCNC(=O)c1ccc2c(c1)oc1cc3ccccc3c(=O)n12 = 33.8 µM
• NCCCn1c(Cl)nc2ccccc21 = > 100 µM
• CCN(Cc1cc(Cl)cc(C)c1O)Cc1c(O)ccc2ccccc12 = 31.4 µM
• Cc1cc(NS(=O)(=O)c2ccc(NC(=O)c3ccc(Cl)c4c(Nc5ccc(S(=O)(=O)Nc6cc(C)on6)cc5)c5ccccc5nc34)cc2)no1 = 34.3 µM
• N=c1oc2ccc3ccccc3c2cc1-c1nc2ccccc2c(=O)[nH]1 = 44.1 µM
